Ref: patent US20040038855A1

# target under test: rat MCH1 receptor (Rattus norvegicus, UniProt P97639)
# Construct: expressed in transfected cells
# Sequence (P97639 whole entry): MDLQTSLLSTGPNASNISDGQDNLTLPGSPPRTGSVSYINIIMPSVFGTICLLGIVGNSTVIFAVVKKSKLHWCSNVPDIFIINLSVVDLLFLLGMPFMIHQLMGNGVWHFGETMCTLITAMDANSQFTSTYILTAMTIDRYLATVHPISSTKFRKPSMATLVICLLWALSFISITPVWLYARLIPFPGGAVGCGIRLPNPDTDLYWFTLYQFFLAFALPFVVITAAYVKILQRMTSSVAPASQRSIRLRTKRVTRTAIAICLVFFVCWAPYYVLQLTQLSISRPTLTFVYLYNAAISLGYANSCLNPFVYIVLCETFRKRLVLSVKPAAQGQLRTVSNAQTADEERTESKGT
# measurement description: Binding affinity (Ki) at the rat MCH1 receptor
# test conditions: Table 3c; read-out: rMCH1 Ki
assay metric: Ki (µM)
Reply with just the number (in µM).

1. CC(C)C(=O)Nc1cccc(C2CCN(CC[C@@H](Oc3cc(F)ccc3F)c3ccccc3)CC2)c1 [Example 110] ... 0.0049

Note to self: Ki recorded for COCC1=C(C(=O)OC)[C@H](c2ccc(F)c(F)c2)N(C(=O)NCCCN2CCC(c3cccc(NC(=O)CC(C)C)c3)CC2)C(=O)N1 [Example 42] was 0.0006

get_value(item= COCC1=C(C(=O)NCCCN2CCC(c3cccc(NC(=O)CC(C)C)c3)CC2)[C@@H](c2ccc(F)c(F)c2)NC(=O)N1 [Example 47] , readout=Ki) returns 0.0343

Recorded Ki (molecule CC(C)C(=O)Nc1cccc(C2CCN(CCCCCN3C(=O)c4ccccc4C3=O)CC2)c1 [Example 95] ): 0.0118

Value of Ki reported for the molecule CC(C)C(=O)Nc1cccc(C2CCN(CCCCCCN3C(=O)c4ccccc4C3=O)CC2)c1 [Example 92] is 0.062

// Ki value for Cc1ccc(C(=O)CCCN2CCC(c3cccc(NC(=O)Cc4ccccc4)c3)CC2)cc1C [Example 60] : 0.357

Record CC(C)C(=O)Nc1cccc(C2CCN(CC[C@H](Oc3cc(F)ccc3F)c3ccccc3)CC2)c1 [Example 123] . Reported Ki: 0.0059

For reference, reported Ki for CCC(C)C(=O)Nc1cccc(C2CCN(CCCNC(=O)C3=C(COC)NC(=O)N[C@@H]3c3ccc(F)c(F)c3)CC2)c1 (stereo partly drawn) [Example 48] stands at 0.0221

---

# target under test: human GALR2 receptor (Homo sapiens, UniProt O43603)
# Construct: expressed in transfected cells
# Sequence (O43603 whole entry): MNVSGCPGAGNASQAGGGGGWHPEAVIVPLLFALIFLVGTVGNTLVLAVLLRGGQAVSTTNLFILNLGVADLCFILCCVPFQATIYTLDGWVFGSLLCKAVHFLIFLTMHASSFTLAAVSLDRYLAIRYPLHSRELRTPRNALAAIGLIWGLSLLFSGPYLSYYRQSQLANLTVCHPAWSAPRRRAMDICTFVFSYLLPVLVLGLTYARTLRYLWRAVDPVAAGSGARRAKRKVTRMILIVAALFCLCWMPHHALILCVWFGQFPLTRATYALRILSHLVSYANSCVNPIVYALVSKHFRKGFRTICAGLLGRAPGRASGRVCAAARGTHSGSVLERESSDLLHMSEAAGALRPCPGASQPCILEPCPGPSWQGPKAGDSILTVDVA
# measurement description: Binding affinity at the human GALR2 receptor
# test conditions: read-out: hGALR2 Ki; Table 3b
pKi: −log10 of the molar value. Structures can show the parent of a compound that is named as a salt.
assay metric: pKi

Worked examples follow.
1) COC(=O)C1=C(C)NC(=O)N(C(=O)NCCCN2CCC3(CC2)OCc2ccccc23)C1c1ccc(F)c(F)c1 (stereo not drawn) ... < 4.30
2) O=C(CCCN1CCC(O)(c2ccc(Cl)cc2)CC1)c1ccc(Cl)cc1 ... < 4.30

With those in mind, consider the next compound.
Recorded result, COC(=O)C1=C(C)NC(=O)N(C(=O)NCCCN2CCC3(CC2)OCc2ccccc23)C1c1ccc2nonc2c1 (single isomer, unassigned) [Example 18, HYDROCHLORIDE] , pKi: < 4.30

---

Documented pKi across a set of compounds
# target under test: human H2 histamine receptor (Homo sapiens)
# Construct: expressed in transfected cells
# Sequence (P25021 whole entry): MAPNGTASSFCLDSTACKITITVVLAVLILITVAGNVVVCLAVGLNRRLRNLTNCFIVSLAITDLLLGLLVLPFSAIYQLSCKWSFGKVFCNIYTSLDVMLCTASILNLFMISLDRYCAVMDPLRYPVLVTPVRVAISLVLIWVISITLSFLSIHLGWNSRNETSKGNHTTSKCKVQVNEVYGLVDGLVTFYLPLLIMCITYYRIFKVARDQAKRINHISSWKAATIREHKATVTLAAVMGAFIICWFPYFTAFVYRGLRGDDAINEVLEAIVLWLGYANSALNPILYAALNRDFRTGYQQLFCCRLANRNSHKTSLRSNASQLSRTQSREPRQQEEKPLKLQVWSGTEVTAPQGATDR
# measurement description: Binding affinity at the human histamine H2 receptor
Counter-ions that a name gives are not always drawn.
Lab note: report pKi as minus log10 of the concentration in molar units, number only.

1. COC(=O)C1=C(C)NC(=O)N(C(=O)NCCCN2CCC3(CC2)OCc2ccccc23)C1c1ccc(F)c(F)c1 (centres unmarked) [Example 20] ... 5.72

As a next step, examine the compound that follows.
Reported pKi for COC(=O)C1=C(C)NC(=O)N(C(=O)NCCCN2CCC3(CC2)OCc2ccccc23)C1c1ccc2nonc2c1 (single isomer, unassigned) [Example 18, HYDROCHLORIDE] was 6.03

---

# target under test: human Histamine H1 receptor (Homo sapiens)
# Construct: expressed in transfected cells
# Sequence (P35367 whole entry): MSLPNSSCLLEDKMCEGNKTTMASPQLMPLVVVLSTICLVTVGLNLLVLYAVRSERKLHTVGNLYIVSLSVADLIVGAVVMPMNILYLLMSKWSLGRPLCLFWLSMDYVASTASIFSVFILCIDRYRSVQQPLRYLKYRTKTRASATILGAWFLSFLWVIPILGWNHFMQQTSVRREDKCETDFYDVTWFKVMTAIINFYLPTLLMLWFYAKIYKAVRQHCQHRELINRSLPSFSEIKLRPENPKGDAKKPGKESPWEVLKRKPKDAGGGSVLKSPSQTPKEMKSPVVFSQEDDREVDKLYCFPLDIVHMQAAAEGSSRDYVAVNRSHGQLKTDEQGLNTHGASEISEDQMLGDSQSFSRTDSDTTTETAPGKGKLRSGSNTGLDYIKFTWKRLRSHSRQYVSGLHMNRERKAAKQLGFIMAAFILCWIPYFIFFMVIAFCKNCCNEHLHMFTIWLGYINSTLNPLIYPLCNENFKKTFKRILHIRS
# measurement description: Binding affinity at the human histamine H1 receptor
# test conditions: Table 3c; read-out: hH1 Ki
assay metric: Ki

The compound listed as CCC(=O)Nc1cccc(C2CCN(CCCNC(=O)C3=C(COC)NC(=O)N[C@@H]3c3ccc(F)c(F)c3)CC2)c1 [Example 46] shows Ki equal to 2870 nM

// CCC1=C(C(=O)OCc2ccccc2)C(c2ccc(F)cc2F)N(C(=O)NCCCN2CCC(c3cccc(NC(C)=O)c3)CC2)C(=O)N1 (stereo not drawn) [Example 52] : Ki value = 1430 nM

// field: Ki; key: COC(=O)C1=C(C)N=C(SCc2ccc(OC)cc2)N(C(=O)NCCCN2CCC(c3cccc(NC(C)=O)c3)CC2)C1c1ccc([N+](=O)[O-])cc1 (stereo not drawn) [Example 54] ; value = 11400 nM

---

# target under test: rat MCH1 receptor (Rattus norvegicus, UniProt P97639)
# Construct: expressed in transfected cells
# measurement description: Binding affinity (Ki) at the rat MCH1 receptor
# test conditions: Examples 38-141; read-out: Ki (nM) rMCH1
Kindly apply the following: 1 (yes) if Ki is less than 10 nM, 0 (no) in every other case.

1) Cc1ccc(C(=O)CCCN2CCC(c3cccc(NC(=O)C(C)C)c3)CC2)cc1C ... 1 (yes)
2) CC(=O)Nc1cccc(C2CCN(CCCNC(=O)N3C(=O)OCC3Cc3ccc(F)cc3)CC2)c1 (centres unmarked) ... 0 (no)
3) COc1ccc(O[C@H](CCN2CCC(c3cccc(NC(=O)C(C)C)c3)CC2)c2ccccc2)cc1OC ... 1 (yes)
4) CC(=O)Nc1cccc(C2CCN(CCCNC(=O)N3C(=O)NC4=C(C(=O)OC4)C3c3ccc4c(c3)OCO4)CC2)c1 (centres unmarked) ... 0 (no)
5) COCC(=O)Nc1cccc(C2CCN(CCCNC(=O)N3C(=O)NC(COC)=C(C(=O)OC)[C@@H]3c3ccc(F)c(F)c3)CC2)c1 ... 1 (yes)
6) COc1cccc(CC(=O)Nc2cccc(C3CCN(CCCC(=O)c4ccc(Cl)cc4)CC3)c2)c1 ... 0 (no)

Is Ki of COc1cccc(O[C@@H](CCN2CCC(c3cccc(NC(=O)C(C)C)c3)CC2)c2ccccc2)c1 strictly below 10 nM?
0 (no)

Please determine if CCOc1ccccc1O[C@@H](CCN1CCC(c2cccc(NC(=O)C(C)C)c2)CC1)c1ccccc1 is below 10 nM in terms of Ki.
0 (no)

---

# target under test: human GALR1 receptor (Homo sapiens, UniProt P47211)
# Construct: expressed in transfected cells
# Sequence (P47211 1-349): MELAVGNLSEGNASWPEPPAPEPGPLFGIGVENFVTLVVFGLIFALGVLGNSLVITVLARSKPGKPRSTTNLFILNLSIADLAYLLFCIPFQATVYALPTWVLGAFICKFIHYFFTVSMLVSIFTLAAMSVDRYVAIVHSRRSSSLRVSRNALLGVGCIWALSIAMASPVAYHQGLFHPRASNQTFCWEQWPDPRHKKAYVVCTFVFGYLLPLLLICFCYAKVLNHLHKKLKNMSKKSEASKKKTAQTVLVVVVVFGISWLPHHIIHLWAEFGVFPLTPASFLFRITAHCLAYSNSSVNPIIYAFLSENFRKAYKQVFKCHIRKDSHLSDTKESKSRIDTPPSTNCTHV
# measurement description: Binding affinity at the human GALR1 receptor
# test conditions: Table 3b; read-out: hGALR1 Ki
# Description: The design of such compounds can be optimized by determining their binding affinity at the recombinant MCH1, NPY1, NPY2, Gal1, Gal2, Gal3, and 5HT2C receptors. […]
assay metric: Ki (µM)
Provide only the numeric value, understood in µM.

1. CCCCN(CCCC)c1ccc(CNC[C@H]2CC[C@H](NC(=O)c3cccc4ccccc34)CC2)cc1 ... 11.3

Okay, now this compound:
Looking up CCCCN(CCCC)c1ccc(CN2CCC(CNC(=O)N3C(=O)NC(C)=C(C(=O)OC)C3c3ccc4nonc4c3)CC2)cc1 (stereo not shown) , I see its Ki listed as 11.1

---

# target under test: human Histamine H1 receptor (Homo sapiens)
# Construct: expressed in transfected cells
# measurement description: Binding affinity at the human histamine H1 receptor
# test conditions: Table 3e; read-out: hH1 Ki
assay metric: Ki
State the value, then name its unit.

Ki in this record for 2-(3,4-DIFLUOROPHENYL)4,5-DIHYDROIMIDAZOLE-1-CARBOXYLIC ACID {3-[4-PHENYL-4-(4-BROMO-5-METHYLTHIOPNEN-2-YL)]-PROPYL}-AMIDE [Example 19] : 11 nM

---

# target under test: human Alpha-1a Adrenergic receptor (Homo sapiens)
# Construct: expressed in transfected cells
# Sequence (P35348 1-466): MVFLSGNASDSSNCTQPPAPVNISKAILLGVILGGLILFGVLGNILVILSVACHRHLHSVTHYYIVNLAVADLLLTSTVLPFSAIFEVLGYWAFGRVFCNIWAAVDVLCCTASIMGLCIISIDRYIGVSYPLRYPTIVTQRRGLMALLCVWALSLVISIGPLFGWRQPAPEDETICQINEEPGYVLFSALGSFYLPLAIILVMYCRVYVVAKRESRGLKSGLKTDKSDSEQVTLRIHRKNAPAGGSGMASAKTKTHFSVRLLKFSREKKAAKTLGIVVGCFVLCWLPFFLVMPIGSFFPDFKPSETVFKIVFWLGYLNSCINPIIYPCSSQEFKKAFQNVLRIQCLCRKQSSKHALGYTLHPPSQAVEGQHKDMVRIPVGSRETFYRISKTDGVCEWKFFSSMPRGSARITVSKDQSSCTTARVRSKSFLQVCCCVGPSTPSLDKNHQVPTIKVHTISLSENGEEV
# measurement description: Binding affinity at the human alpha-1A adrenergic receptor
# test conditions: Table 3c; read-out: hAlpha-1a Ki
Ki under 400 nM gets met, anything at or over 400 nM gets not met.

A selection of reference data follows.
1) COCC1=C(C(=O)NCCCN2CCC(c3cccc(NC(=O)C(C)C)c3)CC2)[C@@H](c2ccc(F)c(F)c2)NC(=O)N1 [Example 50] ... not met
2) CCC(=O)Nc1cccc(C2CCN(CCCNC(=O)C3=C(COC)NC(=O)N[C@@H]3c3ccc(F)c(F)c3)CC2)c1 [Example 46] ... not met
3) CC(C)C(=O)Nc1cccc(C2CCN(CC[C@@H](Oc3cccc(Cl)c3)c3ccccc3)CC2)c1 [Example 124] ... met
4) CC(=O)Nc1cccc(C2CCN(CCCNC(=O)N3C(=O)OC[C@@H]3c3cc(F)c(F)c(F)c3)CC2)c1 [Example 129] ... met
5) CC(=O)Nc1cccc(C2CCN(CCCNC(=O)N3C(=O)OC(C)(C)C3c3ccc(F)c(F)c3)CC2)c1 (stereo not drawn) [Example 130] ... met

Report whether reported Ki is lower than 400 nM (strictly) for CCC(=O)Nc1cccc(C2CCN(CCCNC(=O)N3C(=O)NC(COC)=C(C(=O)OC)[C@@H]3c3ccc(F)c(F)c3)CC2)c1 [Example 41]
met

# TODO verify Ki < 400 nM strictly for this compound: CC(C)C(=O)Nc1cccc(C2CCN(CC[C@H](OC(=O)c3cccc4ccccc34)c3ccccc3)CC2)c1 [Example 125]
met

Report whether reported Ki is lower than 400 nM (strictly) for CC(C)C(=O)Nc1cccc(C2CCN(CCCCc3ccccc3)CC2)c1 [Example 96]
met

Given CC(=O)Nc1cccc(C2CCN(CCCNC(=O)N3C(=O)NC(C)=C(C(C)=O)C3c3cc(F)c(F)c(F)c3)CC2)c1 (stereo not drawn) [Example 51] , is recorded Ki strictly lower than 400 nM?
met

In the record for COc1cccc(CC(=O)Nc2cccc(C3CCN(CCCC(=O)c4ccc(Oc5ccccc5)cc4)CC3)c2)c1 [Example 83] , is Ki less than 400 nM?
met

Given the entry CC(C)C(=O)Nc1cccc(C2CCN(CC[C@H](Oc3cccc(Cl)c3)c3ccccc3)CC2)c1 [Example 107] , would its reported Ki be below 400 nM?
met
